Assay: qHTS of TDP-43 Inhibitors; also: nearly all actives have a fitted effect of over 50% in size; also: potency is read from the fitted curve at half-maximal effect
Conditions: TDP-43 expressing yeast growth rescue, BacTiter-Glo, 24 h; series mostly up to 46.1 µM
From the text: The goal of this project is to identify new chemical probes capable of reversing the toxicity associated with TDP-43 which is associated with frontotemporal lobar degeneration and amyotrophic lateral sclerosis. […] To this end, a miniaturized assay was developed to be screened against the Molecular Libraries Small Molecule Repository (MLSMR) to discover TDP-43 inhibitors. Please note that in the set-up this yeast-based assay compounds that inhibit as TDP-43, have a read-out as activators. […]
The whole screen tested about 410,000 compounds, of which about 7,200 (1.8%) were called active. Not shown: some 7% with an inconclusive outcome. What follows is part of a selection rich in actives, with near analogues and random picks from the rest.

- Compound: "COc1cc(OC)c(NC(=O)N2CC3CCCN3c3ccccc32)cc1Cl (configuration not stated)"
  Potency: "inactive"
- Compound: "Cc1cc(OC(=O)c2ccccc2)c([N+](=O)[O-])c(=O)[nH]1"
  Potency: "inactive"
- Compound: "Cc1ccccc1S(=O)(=O)NC(=O)C1(C)CCN1C(=O)C1(c2ccccc2)CCCC1 (configuration not stated)"
  Potency: "35.5 µM (active)"
- Compound: "CCOc1ccc(Nc2ncnc3scc(-c4ccc(OC)cc4)c23)cc1"
  Potency: "inactive"
- Compound: "O=C(C(=O)N1CCC(c2ccccc2)CC1)c1ccccc1"
  Potency: "12.6 µM (active)"
- Compound: "CCS(=O)(=O)N1CCN(C(=O)c2cccs2)CC1"
  Potency: "inactive"
- Compound: "O=S(=O)(c1ccccc1)N1CCC(c2ccccc2)CC1"
  Potency: "inactive"
- Compound: "COc1cccc(C(=O)Oc2cc(C)[nH]c(=O)c2[N+](=O)[O-])c1"
  Potency: "inactive"
- Compound: "COc1ccc(OC)c(-c2csc(-c3c(N)c(C(=O)c4ccccc4)n4ccccc34)n2)c1"
  Potency: "inactive"
- Compound: "O=C(CSc1nc(-c2cccc(F)c2)[nH]c1-c1ccccc1)Nc1ccc2c(c1)OCO2"
  Potency: "20 µM (active)"
- Compound: "O=C(Nc1cccc(F)c1)[C@@H]1CCCN1"
  Potency: "inactive"
- Compound: "COC(=O)c1cc(NC(=O)c2sc3ccccc3c2Cl)cc(C(=O)OC)c1"
  Potency: "inactive"
- Compound: "Cc1nnc(N2CCC(C(=O)Nc3ccc(F)cc3)CC2)c2nn(-c3ccc(Cl)cc3)c(C)c12"
  Potency: "inactive"
- Compound: "Cc1ccc(NC(=O)C2CC(c3ccc(F)cc3)=NO2)cc1 (configuration not stated)"
  Potency: "inactive"
- Compound: "Cn1c(=O)sc2cc(NS(=O)(=O)c3ccc(C(C)(C)C)cc3)ccc21"
  Potency: "inactive"
- Compound: "CCCNC(=O)C1(C)CCN1C(=O)C1(c2ccccc2)CC1 (configuration not stated)"
  Potency: "inactive"
- Compound: "CCc1ccc(Nc2nn3c(=O)c4cc5c(cc4nc3s2)OCO5)cc1"
  Potency: "inactive"
- Compound: "Cn1c(=O)c2sccc2n2c(CCC(=O)NCc3ccccc3Cl)nnc12"
  Potency: "inactive"
- Compound: "COc1ccc(Nc2cc(Sc3ccc(OC)cc3)ncn2)cc1"
  Potency: "22.4 µM (active)"
- Compound: "CCCCOc1ccc(NC(=O)CSCC(=O)OCC)cc1"
  Potency: "12.6 µM (active)"
- Compound: "O=C(CSc1ccc(-c2ccc(F)cc2)nn1)Nc1ccc2c(c1)OCCO2"
  Potency: "inactive"
- Compound: "O=C(CSc1nc2c(c(=O)[nH]1)CN(Cc1ccc(F)cc1)CC2)Nc1ccccc1Cl"
  Potency: "inactive"
- Compound: "CCOC(=O)C1CCCN(C(=O)c2ccc(-n3ccc4ccccc43)s2)C1 (configuration not stated)"
  Potency: "inactive"
- Compound: "CCOc1ccc(NC(=O)C2CCN(S(=O)(=O)c3cc(-c4noc(C)n4)ccc3C)CC2)cc1"
  Potency: "inactive"
- Compound: "O=C(c1ccc(C(F)(F)F)cc1)N1CCC(c2nc(-c3ccc(S(=O)(=O)N4CCCC4)cc3)no2)CC1"
  Potency: "inactive"
- Compound: "CCc1cccc(CC)c1NC(=O)Cn1c(=O)c(-c2cc(C)ccc2NC(C)=O)nc2ccccc21"
  Potency: "inactive"
- Compound: "Cc1nnc(SCc2cc(=O)c3cc(F)ccc3[nH]2)n1C"
  Potency: "inactive"
- Compound: "COc1ccc(NC(=O)CSc2ncnc3[nH]ncc23)cc1"
  Potency: "inactive"
- Compound: "CC1(C(=O)NS(=O)(=O)c2ccccc2)CCN1C(=O)c1ccccc1 (configuration not stated)"
  Potency: "inactive"
- Compound: "CCCCN(C(=O)CSCC(=O)Nc1ccc(OC)cc1)c1c(N)n(CCC)c(=O)[nH]c1=O"
  Potency: "inactive"
- Compound: "O=C1CN(C(=O)Nc2ccccc2C(F)(F)F)C(c2ccccc2)c2c(sc3c2CCCC3)N1 (configuration not stated)"
  Potency: "inactive"
- Compound: "COc1ccc(CNc2nc(-c3ccccc3)nn2C(=O)c2ccccc2OC)cc1"
  Potency: "inactive"
- Compound: "O=C(Nc1ccc(S(=O)(=O)N2CCC(c3nc4ccccc4s3)CC2)cc1)c1ccccc1F"
  Potency: "inactive"
- Compound: "CCOc1ccccc1NC(=O)c1ccc2c(c1)CCN2S(=O)(=O)c1ccc(C)cc1"
  Potency: "inactive"
- Compound: "COc1ccccc1CNC(=O)C(=O)NCC(c1ccco1)S(=O)(=O)c1ccc(F)cc1 (configuration not stated)"
  Potency: "inactive"
- Compound: "Cc1ccc2cc(/C=N/NC(=O)[C@@H]3CCCN3)c(Cl)nc2c1"
  Potency: "4.47 µM (active)"
- Compound: "COc1ccccc1NC(=O)c1oc2ccccc2c1NC(=O)COc1ccccc1OC"
  Potency: "inactive"
- Compound: "Cc1ccc2nc(N3CCN(c4cccc(Cl)c4)CC3)c3nnnn3c2c1"
  Potency: "inactive"
- Compound: "Cc1cc(OC(=O)c2ccc(OC(C)C)cc2)c([N+](=O)[O-])c(=O)[nH]1"
  Potency: "22.4 µM (active)"
- Compound: "Cc1ccccc1N(C(=O)CNC(=O)c1cccs1)C(C(=O)NC1CCCC1)c1ccncc1 (configuration not stated)"
  Potency: "inactive"
- Compound: "Cc1ccccc1S(=O)(=O)NC(=O)C1(C)CCN1C(=O)C1(c2ccc(Cl)cc2)CC1 (configuration not stated)"
  Potency: "28.2 µM (active)"
- Compound: "Cc1ccn2c(Nc3ccc4c(c3)OCCO4)c(-c3ccc(C)s3)nc2c1"
  Potency: "inactive"

----------
experiment: qHTS of TDP-43 Inhibitors; details: TDP-43 expressing yeast growth rescue, BacTiter-Glo, 24 h; series mostly up to 46.1 µM; also: nearly all actives have a fitted effect of over 50% in size
Hit rate of the full screen: of about 410,000 compounds, about 7,200 (1.8%) were called active. Roughly 7% stayed inconclusive and do not appear here. Calls follow the shape of the dose curve; as a rule, active = well fitted activation curve with a large enough effect; inconclusive = small, poorly fitted or top-dose-only effect, or another doubt; inactive = no such curve, though single readings can be large or run the other way. Shown is part of a subset that was picked to be rich in actives.
Classes used: active, inactive

- Compound: "Nc1cccc(-c2cc(-c3ccccc3)nc(-c3cccc(N)c3)n2)c1"
  Class label: "active"
- Compound: "COc1ccc(Br)cc1CN(C)CC(=O)Nc1cc([N+](=O)[O-])ccc1OC"
  Class label: "inactive"
- Compound: "COc1ccc([N+](=O)[O-])cc1NCC(=O)c1ccc(C)cc1"
  Class label: "inactive"
- Compound: "COc1cc([N+](=O)[O-])ccc1NC(=S)N1CCN(c2ccccn2)CC1"
  Class label: "inactive"
- Compound: "O=c1[nH]c2cc(Br)ccc2n2cccc12"
  Class label: "active"
- Compound: "CCCn1c2ccccc2c2cnn(CC(=O)N3CCCC(C(=O)OCC)C3)c(=O)c21 (stereo not given)"
  Class label: "inactive"
- Compound: "COc1ccc(NC(=O)c2cc([N+](=O)[O-])ccc2NC(=O)CNC2CCCCC2C)c(OC)c1 (stereo not given)"
  Class label: "inactive"
- Compound: "COc1ccccc1CC(=O)Nc1ccc([N+](=O)[O-])cc1OC"
  Class label: "active"
- Compound: "C/C(=N\\N)c1c(-c2ccccc2)c2cc(Br)ccc2[nH]c1=O"
  Class label: "inactive"
- Compound: "COc1cc([N+](=O)[O-])ccc1NC(=O)COC(=O)CCOc1ccc(C)cc1"
  Class label: "active"

----------
experiment: qHTS of TDP-43 Inhibitors; conditions: TDP-43 expressing yeast growth rescue, BacTiter-Glo, 24 h; series mostly up to 46.1 µM; also: nearly all actives have a fitted effect of over 50% in size
Hit rate of the full screen: of about 410,000 compounds, about 7,200 (1.8%) were called active. Inconclusive results (about 7%) are left out. Calls come from the whole dose curve; as a rule, active = well fitted activation curve with a large enough effect; inconclusive = small, poorly fitted or top-dose-only effect, or another doubt; inactive = no such curve, though single readings can be large or run the other way. The entries come from a sample that favours actives as a whole.
Outcomes: active, inactive

- Molecule: "Cc1cccc(C(CC(=O)NCC2(c3ccccc3)CCCC2)c2ccccc2)c1O (stereo not drawn)"
  Class label: "inactive"
- Molecule: "CCn1cc(C(=O)N2CCN(c3cc(Cl)ccc3C)CC2)c(=O)c2cc(S(=O)(=O)N3CCCC3)ccc21"
  Class label: "inactive"
- Molecule: "COc1ccc(CC(=O)Nc2nnc3n2CCS3)cc1OC"
  Class label: "inactive"
- Molecule: "COc1ccc(OC)c(NC(=O)CSC2=Nc3ccccc3C3=NC(CC(=O)NCCc4ccccc4)C(=O)N23)c1 (stereo not drawn)"
  Class label: "inactive"
- Molecule: "Cc1cccc(NC(=O)Cn2nc(-c3ccc(Cl)cc3)c3ccccc3c2=O)c1"
  Class label: "inactive"
- Molecule: "CC(=O)Oc1ccc(N(C(C)=O)S(=O)(=O)c2ccc3ccccc3c2)cc1Br"
  Class label: "active"
- Molecule: "Cc1[nH]c2ccccc2c1C(c1ccccc1)c1cccs1 (stereo not drawn)"
  Class label: "active"
- Molecule: "COc1ccccc1CN1CCC(CNC(=O)c2cnn(-c3ccccc3Cl)c2C2CCN(C(=O)OC(C)(C)C)CC2)CC1"
  Class label: "inactive"
- Molecule: "COc1ccccc1CNC(=O)CCCn1c(=O)c2ccccc2n(CC(=O)Nc2ccc(C)cc2Cl)c1=O"
  Class label: "inactive"
- Molecule: "C=C1C(=O)OC2C1CCC(C)=CCCC1(C)OC21 (stereo not drawn)"
  Class label: "active"
- Molecule: "COc1ccc2oc(-c3ccc(C)c(NC(=O)c4sc5ccccc5c4Cl)c3)nc2c1"
  Class label: "inactive"
- Molecule: "O=c1[nH]snc1-c1c(Cl)cccc1Cl"
  Class label: "active"
- Molecule: "O=C1c2ccccc2S(=O)(=O)N1CC(O)Cn1c2ccccc2c2ccccc21 (stereo not drawn)"
  Class label: "active"
- Molecule: "CN(C)NC(=O)c1csnc1-c1c(Cl)cccc1Cl"
  Class label: "inactive"
- Molecule: "Cc1cccc(NC(=O)C2CCN(S(=O)(=O)c3c(C)noc3/C=C/c3ccco3)CC2)c1"
  Class label: "inactive"
- Molecule: "O=C1c2ccccc2S(=O)(=O)N1Cc1c(F)cccc1Cl"
  Class label: "inactive"
- Molecule: "Cc1ccc(Cl)cc1NC(=O)/C(C#N)=C\\c1cn(Cc2ccc(F)cc2)c2ccccc12"
  Class label: "inactive"
- Molecule: "CC(C)(C)c1ccc(OCC(=O)N2CCC(c3nc4ccccc4s3)CC2)cc1"
  Class label: "inactive"
- Molecule: "Cc1nn(C(=O)c2c(F)cccc2F)c(C)c1S(=O)(=O)N1CCOCC1"
  Class label: "inactive"
- Molecule: "O=C(O)c1[nH]c2ccccc2c1C(c1cccc(O)c1)c1c(C(=O)O)[nH]c2ccccc12"
  Class label: "inactive"
- Molecule: "Cc1nc2ccn(Cc3cccs3)c(=O)c2cc1C(=O)NCc1ccc(Cl)cc1"
  Class label: "inactive"
- Molecule: "COc1ccc(/C=C/c2nc(C#N)c(NCc3ccc(F)cc3)o2)cc1OC"
  Class label: "inactive"
- Molecule: "CCCCS(=O)(=O)c1oc(-c2cccs2)nc1S(=O)(=O)c1ccccc1"
  Class label: "inactive"
- Molecule: "CC(=O)N(c1ccc2oc(=O)sc2c1)S(=O)(=O)c1ccc(C)cc1"
  Class label: "inactive"
- Molecule: "Cc1ccc(NC(=O)C2CCN(S(=O)(=O)c3cc(-c4noc(C)n4)ccc3C)CC2)c(C)c1"
  Class label: "inactive"
- Molecule: "CCCC12CN3CC(CCC)(CN(C1)C3c1c[nH]c3ccc(OC)cc13)C2=O (stereo not drawn)"
  Class label: "inactive"
- Molecule: "CCOC(=O)CNc1nc(Cl)nc(Nc2ccccc2)n1"
  Class label: "inactive"
- Molecule: "COc1ccc(N)cc1NC(=O)CN1CCOCC1"
  Class label: "inactive"
- Molecule: "COc1ccc(CNC(=O)CSc2nc3ccccc3nc2Cc2ccccc2)cc1"
  Class label: "inactive"
- Molecule: "O=S(=O)(c1ccc2nc(N3CCN(c4cccc(Cl)c4)CC3)ccc2c1)N1CCCCC1"
  Class label: "inactive"
- Molecule: "CCCC(=O)Nc1ccccc1N1CCN(C(=O)c2ccccc2)CC1"
  Class label: "inactive"
- Molecule: "C=CCNc1nc(Nc2ccc(Cl)cc2)nc(OC)n1"
  Class label: "active"
- Molecule: "CCOC(=O)C1CCCN(C(=O)C2CCN(c3nnc(-n4cccc4)s3)CC2)C1 (stereo not drawn)"
  Class label: "inactive"
- Molecule: "CCOC(=O)c1cnc2c(C)cc(C)cc2c1Nc1ccc(N2CCOCC2)cc1"
  Class label: "inactive"
- Molecule: "COc1cc(OC)cc(-c2nc3nc(C)c(CCC(=O)Nc4ccccc4)c(C)n3n2)c1"
  Class label: "inactive"
- Molecule: "C=CCNc1nc(C)nc(OC)n1"
  Class label: "inactive"
- Molecule: "COc1cc(/C(=C/c2ccccc2)c2ccccc2)c2c(c1)oc1ccccc12"
  Class label: "inactive"
- Molecule: "O=Cc1c(Cl)cccc1Cl"
  Class label: "inactive"
- Molecule: "CCC(C)C(=O)Nc1ccccc1N1CCN(c2ccc(F)cc2)CC1 (stereo not drawn)"
  Class label: "active"
- Molecule: "O=C(NCc1ccc(F)cc1)c1ccc(Cn2c(SCc3ccc(F)cc3)nc3cccnc32)cc1"
  Class label: "inactive"
- Molecule: "CC(=O)Nc1ccc(NC(=O)CCCc2nc(-c3ccc(C(C)(C)C)cc3)no2)cc1"
  Class label: "inactive"
- Molecule: "COc1ccc(NS(=O)(=O)c2cc3c4c(c2)CC(=O)N4CCC3)cc1Cl"
  Class label: "inactive"
- Molecule: "Cc1cccc(OCCCC(=O)Nc2sc3c(c2C(N)=O)CCC(C)C3)c1 (stereo not drawn)"
  Class label: "inactive"
